Parameter: koff. Scope: all listed entries.
- tested.target: T1, human serum albumin (HSA), full length (human, UniProt P02768 25-609)
- T1 construct: mature; Immobilized on CM5 chip (SPR) or coated on plates (ELISA)
- T1 sequence (P02768 25-609): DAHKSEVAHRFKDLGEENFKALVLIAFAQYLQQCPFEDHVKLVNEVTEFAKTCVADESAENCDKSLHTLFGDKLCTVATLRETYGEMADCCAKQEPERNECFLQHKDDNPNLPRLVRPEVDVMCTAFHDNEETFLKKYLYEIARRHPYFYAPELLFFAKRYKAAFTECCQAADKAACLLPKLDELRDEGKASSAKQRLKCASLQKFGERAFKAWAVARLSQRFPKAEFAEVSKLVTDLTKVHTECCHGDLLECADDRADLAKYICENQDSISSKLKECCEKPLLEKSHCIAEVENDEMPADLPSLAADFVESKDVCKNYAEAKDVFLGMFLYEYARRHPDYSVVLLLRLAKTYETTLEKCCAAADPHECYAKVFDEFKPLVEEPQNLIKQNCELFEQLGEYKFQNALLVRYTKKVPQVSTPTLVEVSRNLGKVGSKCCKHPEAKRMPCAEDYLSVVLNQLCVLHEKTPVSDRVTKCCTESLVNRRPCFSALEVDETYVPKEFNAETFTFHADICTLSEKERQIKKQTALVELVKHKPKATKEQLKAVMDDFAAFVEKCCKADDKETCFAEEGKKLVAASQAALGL
- assay: SPR off-rate, immobilized HSA, 500 nM Adnectin, 25 C

{"binder": "ADX_6727_A07 (Y44S/K85T) (designed binder, Full His6-tagged entry) MGVSDVPRDLEVVAATPTSLLISWDAPAVTVRYYRITYGREVQKYSDLGPLYISQEFTVPGSKSTATISGLKPGVDYTITVYAVTGSGESPASSTPISINYRTEIDKPSQHHHHHH", "koff / s⁻¹": 0.00129}
{"binder": "ADX_6727_G04 (Y44S/K85S) (designed binder, Full His6-tagged entry) MGVSDVPRDLEVVAATPTSLLISWDAPAVTVRYYRITYGREVQKYSDLGPLYISQEFTVPGSKSTATISGLKPGVDYTITVYAVTGSGESPASSSPISINYRTEIDKPSQHHHHHH", "koff / s⁻¹": 0.00177}
{"binder": "ADX_6727_F07 (Y44S/K85A) (designed binder, Full His6-tagged entry) MGVSDVPRDLEVVAATPTSLLISWDAPAVTVRYYRITYGREVQKYSDLGPLYISQEFTVPGSKSTATISGLKPGVDYTITVYAVTGSGESPASSAPISINYRTEIDKPSQHHHHHH", "koff / s⁻¹": 0.00176}
{"binder": "ADX_6727_D03 (L41S) (designed binder, Full His6-tagged entry) MGVSDVPRDLEVVAATPTSLLISWDAPAVTVRYYRITYGREVQKYSDLGPSYIYQEFTVPGSKSTATISGLKPGVDYTITVYAVTGSGESPASSKPISINYRTEIDKPSQHHHHHH", "koff / s⁻¹": 0.00777}
